procedureDetails: Evaluation of solubility in distilled water and aqueous solutions having various pH values
Assay type: physicochemical
conditionNotes: pH 6.8
Structures can show the parent of a compound that is named as a salt.
measuredProperty: solubility (mg/mL)
Numbers only here, please. The scale is mg/mL.

Supply solubility value. Item: CC(C)CC(N(C)C)C1(c2ccc(Cl)cc2)CCC1 (stereo not shown) [Edisylate, sibutramine edisylate] 19.44

# return recorded solubility for entry CC(C)CC(N(C)C)C1(c2ccc(Cl)cc2)CCC1 (stereo not shown) [Besylate, sibutramine besylate] 21.86

Provide solubility value for the following compound: CC(C)CC(N(C)C)C1(c2ccc(Cl)cc2)CCC1 (stereo not shown) [Tosylate, sibutramine tosylate] 21.92

Answer with reported solubility of CC(C)CC(N(C)C)C1(c2ccc(Cl)cc2)CCC1.CC1(C)C2CCC1(CS(=O)(=O)O)C(=O)C2 (stereo not shown) [Camsylate, sibutramine camsylate] 29.83
